# ASSAY_INFO: Oral bioavailability in monkey
# Format: ADME, organism-based, Macaca mulatta
# SETUP_CONDITIONS: rhesus monkey, in vivo
ENDPOINT_NAME: bioavailability (%)
Express the result in % but write the number alone.

Problem: For the compound N#C[C@@H]1C[C@@H]2C[C@@H]2N1C(=O)[C@@H](N)C12CC3CC(CC(O)(C3)C1)C2 [SAXAGLIPTIN ANHYDROUS] , what bioavailability is on record?
Solution: 51

---

Listed here: items and their measured pIC50.
# TARGET_SYSTEM: Cytochrome P450 2C9 (Homo sapiens, UniProt P11712)
# Sequence (P11712 whole entry): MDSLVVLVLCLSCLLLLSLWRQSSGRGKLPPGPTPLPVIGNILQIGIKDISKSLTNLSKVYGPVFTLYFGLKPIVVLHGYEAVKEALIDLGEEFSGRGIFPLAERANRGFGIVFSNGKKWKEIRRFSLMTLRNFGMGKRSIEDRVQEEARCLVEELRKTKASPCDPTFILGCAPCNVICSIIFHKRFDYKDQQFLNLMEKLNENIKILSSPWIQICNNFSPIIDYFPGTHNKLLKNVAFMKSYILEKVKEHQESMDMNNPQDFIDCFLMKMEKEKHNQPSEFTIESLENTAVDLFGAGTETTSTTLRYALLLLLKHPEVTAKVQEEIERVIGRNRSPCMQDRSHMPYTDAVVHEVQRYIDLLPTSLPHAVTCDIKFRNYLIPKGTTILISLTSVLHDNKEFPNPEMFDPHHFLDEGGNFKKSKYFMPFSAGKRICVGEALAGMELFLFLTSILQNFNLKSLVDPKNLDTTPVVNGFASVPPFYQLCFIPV
# ASSAY_INFO: Inhibition of CYP2C9 in human liver microsomes assessed as paclitaxel 6alpha-hydroxylation after 3 mins by LC-MS/MS analysis in presence of NADPH
# Type: ADME
# SETUP_CONDITIONS: in the assay text read “tolbutamide hydroxylation” for “paclitaxel 6alpha-hydroxylation”
pIC50: −log10 of the molar value.

1. N#C[C@@H]1C[C@@H]2C[C@@H]2N1C(=O)[C@@H](N)C12CC3CC(O)(CC(O)(C3)C1)C2 : < 3.70

Read the next record carefully.
Problem: Please state recorded pIC50 (tested on Cytochrome P450 2C9 (Homo sapiens, UniProt P11712)) of N#C[C@@H]1C[C@@H]2C[C@@H]2N1C(=O)[C@@H](N)C12CC3CC(CC(O)(C3)C1)C2 [SAXAGLIPTIN ANHYDROUS]
Solution: < 4.30
